The measured values listed here are drawn from ChEMBL document CHEMBL3425438.

Assay: Oral bioavailability in CD-1 mouse at 50 mg/kg using 0.5% polysorbate suspension
Type: ADME, organism-based
Settings: in vivo
parameter: bioavailability (%)

1. CC/C(=C(\c1ccccc1)c1ccc(/C=C/C(=O)O)cc1)c1ccccc1 = 62

###

Assay: Octanol-buffer partition coefficient, log D of the compound at ratio of 1:100 at pH 7.4 by shake-flask method
Type: physicochemical
Recorded logD, one value per entry.
parameter: logD

1) Cc1cccc(-c2c(Cc3ccc(/C=C/C(=O)O)cc3)c3ccc(O)cc3oc2=O)c1 = 2.2
2) Cc1cc(F)ccc1-c1c(Nc2ccc(/C=C/C(=O)O)cc2)c2ccc(O)cc2oc1=O = 1.3
3) Cc1cc(F)ccc1-c1c(N(C)c2ccc(/C=C/C(=O)O)cc2)c2ccc(O)cc2oc1=O = 2.3
4) Cc1cc(F)ccc1-c1c(Cc2ccc(/C=C/C(=O)O)cc2)c2ccc(C(F)F)cc2oc1=O = 2.2
